The reported measurements were obtained from PubChem BioAssay (NCI).

- System: SK-MEL-5 melanoma
- assay_method_text: NCI tumour cell line growth inhibition, 48 h
measured_attribute: TGI

# get_value(readout='TGI', item= CN1CCOC1(C)CO (stereo not drawn) )
> 100 µM

# get_value(readout='TGI', item= CCOC(=O)CC1CCN(C(=O)c2ccccc2)C2Cc3c([nH]c4ccccc34)C12C[N+](=O)[O-] (stereo not drawn) )
> 100 µM

# get_value(readout='TGI', item= CCOC(=O)C(N=Nc1ccc(S(N)(=O)=O)cc1)C(C)=O (stereo not drawn) )
> 100 µM

* * *

- Test system: KM12 colon
- assay_method_text: NCI tumour cell line growth inhibition, 48 h
measured_attribute: TGI

# get_value(readout='TGI', item= `CN1CCc2c(Sc3ccc(C(=O)NO)cc3)c3ccccc3n2C1` )
3.67 µM

# get_value(readout='TGI', item= CC1=C(C(N)=O)C(c2ccncc2)C(C#N)=C2SCC(=O)N12 (configuration not stated) )
> 100 µM

# get_value(readout='TGI', item= `Cc1[nH][nH]c(=O)c1C=Nc1ccc(-c2nc3ccccc3[nH]2)cc1` )
89.7 µM

# get_value(readout='TGI', item= `O=C(N/N=C\c1cc(Br)ccc1O)c1ccncc1` )
> 100 µM

# get_value(readout='TGI', item= `CN(Nc1cc(=O)[nH]c(=O)[nH]1)c1ccccc1` )
> 100 µM

# get_value(readout='TGI', item= Cc1cccc2c1[C@]13OC(C)[C@]4(C)CC5OC(=O)[C@@]1(C)[C@@H]5[C@]34C(=O)O2 (some centres not stated) )
> 100 µM

# get_value(readout='TGI', item= COc1ccc(C(=O)C(CO)Oc2ccccc2OC)cc1OC (configuration not stated) )
> 100 µM

* * *

- Test system: OVCAR-8 ovarian
- assay_method_text: NCI tumour cell line growth inhibition, 48 h; in the data active = GI50 below about 0.43 µM; inactive = the rest
Classes to choose from: class 1 for active, class 0 for inactive

Returns: the outcome recorded for `CCOC(=O)N1CCN(C(=O)c2ccc(C(F)(F)F)nc2Nc2cc(Cl)ccc2C)CC1` in this assay.
class 0

Returns: the outcome recorded for `O=C(Nc1cccc(Cl)c1Cl)c1cccc(NC2=C(Cl)C(=O)N(Cc3ccccc3)C2=O)c1` in this assay.
class 0

Returns: the outcome recorded for COc1cc(NC(C)CCCN)c2nccc(C)c2c1OC (stereo not drawn) in this assay.
class 0

Returns: the outcome recorded for `Cc1[nH][nH]c(=O)c1C=Nc1ccc(-c2nc3ccccc3[nH]2)cc1` in this assay.
class 0

Returns: the outcome recorded for `Nc1ccncc1/C=C1/C(=O)Nc2ccccc21` in this assay.
class 0

Returns: the outcome recorded for `Cc1ccc(N(CSc2ccc(Cl)cc2)CSc2ccc(Cl)cc2)cc1` in this assay.
class 0

Returns: the outcome recorded for Nc1nc(Br)nc2c1ncn2C1CC(O)C(CO)O1 (stereo not drawn) in this assay.
class 1

Returns: the outcome recorded for `CC(=O)c1c(CBr)n([O-])c2ccccc2[n+]1=O` in this assay.
class 0

Returns: the outcome recorded for `Cc1cc(NC(=O)c2ccc(C)c(Nc3nccc(-c4cccnc4)n3)c2)cc(-n2cnc(C)c2)c1` in this assay.
class 0

Returns: the outcome recorded for `O=c1[nH]c2cc(Cl)ccc2n1C1CCN(CCCC(c2ccc(F)cc2)c2ccc(F)cc2)CC1` in this assay.
class 0

Returns: the outcome recorded for `Nc1nc(Nc2ccccc2)c2ncn(Cc3cc4c(cc3Br)OCO4)c2n1` in this assay.
class 1

Returns: the outcome recorded for `COc1cc(/C=C2\C(=O)Nc3ccc(F)cc32)cc(OC)c1OC` in this assay.
class 0

Returns: the outcome recorded for `CCN(CC)CCNCC(=O)Oc1ccc(/C=C/C(=O)CC(=O)/C=C/c2ccc(OC(=O)CNCCN(CC)CC)c(OC)c2)cc1OC` in this assay.
class 0
